Test system: A549
Procedure Details: Cytotoxicity in human A549 cells assessed as inhibition of cell proliferation measured by CCK-8 assay
Assay type: functional, cell-based
Documented log10(IC50) across a set of compounds
Values are log10 of IC50 in nM.

These solved cases illustrate the format of a correct answer.
# Compound, Measured Target, Numeric Value
measured = [
    ("COc1cc([C@@H]2c3cc4c(cc3[C@H](OC(=O)[C@H](Cc3c[nH]c5ccccc35)NC(=O)OC(C)(C)C)[C@H]3COC(=O)[C@H]23)OCO4)cc(OC)c1OC", "A549", 2.50),
    ("COc1cc([C@@H]2c3cc4c(cc3[C@H](OC(=O)c3ccncc3)[C@H]3COC(=O)[C@H]23)OCO4)cc(OC)c1OC [4-O-PODOPHYLLOTOXINYL-ISONICOTINATE]", "A549", 1.21),
    ("COc1cc([C@@H]2c3cc4c(cc3[C@H](OC(=O)[C@H](CC(C)C)NC(=O)OC(C)(C)C)[C@H]3COC(=O)[C@H]23)OCO4)cc(OC)c1OC", "A549", 3.81),
    ("COc1cc([C@@H]2c3cc4c(cc3[C@H](OC(=O)CN(C)C(=O)OC(C)(C)C)[C@H]3COC(=O)[C@H]23)OCO4)cc(OC)c1OC", "A549", 1.63),
    ("COc1cc([C@@H]2c3cc4c(cc3[C@H](OC(=O)c3cccs3)[C@H]3COC(=O)[C@H]23)OCO4)cc(OC)c1OC", "A549", 1.84),
]

Note: attention shifts to another entry.
## Input Consider the compound `C/C=C/C(=O)O[C@H]1c2cc3c(cc2[C@@H](c2cc(OC)c(OC)c(OC)c2)[C@H]2C(=O)OC[C@@H]21)OCO3` and give its recorded log10(IC50).
## Output 1.60

Where these numbers come from: ChEMBL document CHEMBL4811295
